Origin of values: ChEMBL document CHEMBL1143276

System: Escherichia coli
protocol-details: Antibacterial activity against Escherichia coli ATCC 25922 after 24 hrs
Type: functional
condition-summary: ATCC 25922, 24 h
Each entry below carries its recorded MIC.
reported-metric: MIC

smiles_notation=Oc1cc(Cc2c(Br)c(O)c(O)c(Br)c2Br)c(Br)c(Br)c1O subject_of_test="Escherichia coli" reported_metric=MIC endpoint_result="50 µg/mL"
smiles_notation=Oc1ccc(Cl)cc1Cc1cc(Cl)ccc1O subject_of_test="Escherichia coli" reported_metric=MIC endpoint_result="100 µg/mL"
smiles_notation=Oc1cc(Cc2cc(O)c(O)c(Br)c2Br)c(Br)c(Br)c1O subject_of_test="Escherichia coli" reported_metric=MIC endpoint_result="50 µg/mL"
smiles_notation=Oc1cc(Cl)c(Cc2cc(O)c(O)cc2Cl)cc1O subject_of_test="Escherichia coli" reported_metric=MIC endpoint_result="> 100 µg/mL"
smiles_notation=Oc1c(Cl)cc(Cl)cc1Cc1cc(Cl)cc(Cl)c1O subject_of_test="Escherichia coli" reported_metric=MIC endpoint_result="> 100 µg/mL"
smiles_notation=CC1(C)S[C@@H]2[C@H](NC(=O)[C@H](N)c3ccccc3)C(=O)N2[C@H]1C(=O)O subject_of_test="Escherichia coli" reported_metric=MIC endpoint_result="12.5 µg/mL"
smiles_notation=Oc1cc(Cc2cc(O)c(O)c(Cl)c2Cl)c(Cl)c(Cl)c1O subject_of_test="Escherichia coli" reported_metric=MIC endpoint_result="50 µg/mL"
smiles_notation=Oc1cc(Cl)c(Cc2cc(O)c(O)c(Cl)c2Cl)cc1O subject_of_test="Escherichia coli" reported_metric=MIC endpoint_result="100 µg/mL"
smiles_notation=Oc1ccccc1Cc1cccc(Cl)c1O subject_of_test="Escherichia coli" reported_metric=MIC endpoint_result="100 µg/mL"
smiles_notation=Brc1cc2c(cc1Cc1cc3c(cc1Br)OCO3)OCO2 subject_of_test="Escherichia coli" reported_metric=MIC endpoint_result="> 100 µg/mL"
smiles_notation=Oc1ccccc1Cc1cc(Cl)ccc1O subject_of_test="Escherichia coli" reported_metric=MIC endpoint_result="50 µg/mL"
